Where do the numbers come from? From PubChem BioAssay (NCI).

Tested on: NCI/ADR-RES ovarian
protocolText: NCI-60 one-dose screen, 48 h (100 = growth as untreated, 0 = no growth, -100 = all killed)
particulars: 10 µM unless noted
The panel holds about 83,000 compounds, 20% with a hit somewhere; the sample as a whole holds those more often. Calls of active or inactive are those of the source. The calls were made as follows: active = growth percent below 10; inactive = the rest.
measuredProperty: growth

Below are worked cases with known answers.
1) COC(=O)[C@H]1CCCN1C(=O)[C@H]1CCCN1C(=O)[C@H](Cc1c[nH]c2ccccc12)NC(=S)Nc1cc(C(F)(F)F)cc(C(F)(F)F)c1; 93.2% (inactive)
2) CCCCN1CCN(c2ccc3nc(-c4ccc5nc(-c6ccc(C(F)(F)F)cc6)[nH]c5c4)[nH]c3c2)CC1; 54.8% (inactive)
3) O=Cc1cc2ccccc2nc1Nc1nccs1; 77% (inactive)
4) CC[C@]1(O)C[C@@H]2CN(CCc3c([nH]c4ccccc34)[C@@](C(=O)OC)(c3cc4c(cc3OC)N(C)[C@H]3[C@@](O)(C(=O)OC)[C@H](OC(C)=O)[C@]5(CC)C=CCN6CC[C@]43[C@@H]65)C2)C1; -19.8% (active)
5) CCN1CCN(C(=S)SCC(=O)Nc2nc3ccc(C)cc3s2)CC1; 103% (inactive)

Dear colleague, I am looking for the recorded growth of the following compound: "COC(=O)/C(CCC=C(C)C)=C1\[C@@H](OC(C)=O)C[C@@]2(C)[C@H]1CC(=O)[C@H]1[C@@]3(C)CC[C@H](NCc4ccccc4)[C@@H](C)[C@@H]3CC[C@@]12C"
88.3% (inactive)
